Target: recombinant human KLK5 (human) (UniProt Q9Y337)
Sequence (Q9Y337 67-293): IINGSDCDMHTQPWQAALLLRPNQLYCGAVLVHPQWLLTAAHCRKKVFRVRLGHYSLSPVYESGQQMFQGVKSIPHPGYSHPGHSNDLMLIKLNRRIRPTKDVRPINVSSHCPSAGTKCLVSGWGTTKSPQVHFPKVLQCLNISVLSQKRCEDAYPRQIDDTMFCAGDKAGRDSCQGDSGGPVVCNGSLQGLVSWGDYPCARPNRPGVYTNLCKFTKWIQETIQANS
Assay: SPR BIAcore T200, antibody captured by anti-human Fc, human KLK5 as analyte, 37 C
Overview of reported Kd across a group of binders:
The figure you give is taken to be in pM; do not add the unit.

>>> number("9H5 (antibody, V domains shown) VH: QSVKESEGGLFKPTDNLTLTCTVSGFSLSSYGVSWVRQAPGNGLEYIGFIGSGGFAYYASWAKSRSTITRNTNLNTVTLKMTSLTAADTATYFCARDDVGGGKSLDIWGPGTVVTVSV VL: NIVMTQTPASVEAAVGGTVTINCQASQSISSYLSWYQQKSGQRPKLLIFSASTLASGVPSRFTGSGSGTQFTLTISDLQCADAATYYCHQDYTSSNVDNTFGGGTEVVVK")
193
>>> number("hu10C5.L5H28 (antibody, V domains shown) VH: EVQLVESGGGLVQPGGSLRLSCAASGFSLSSYGVTWVRQAPGKGLEWIGYITSNYGVSYYASWAKSRSTISRDTSKNTVYLQMGSLRAEDMAVYYCARENPDYGYAYDAWGQGTTVTVSS VL: AIRMTQSPSSFSASTGDRVTITCQASESISNELSWYQQKPGKAPKLLIYYASTLASGVPSRFSGSGSGTDFTLTISSLQPEDFATYYCAQGFGSSGVENVFGGGTKVEIK")
57
>>> number("hu3-3F5.L5H25 (antibody, human IgG1, V domains shown) VH: EVQLLESGGGLVQPGGSLRLSCAASGFSLNDYGVSWVRQAPGKGLEWVGAIGSSGVAWYANFAKGRFTISRDTSKNTVYLQMNSLRAEDTAVYYCARDRDYGYRADDATSGMDLWGRGTLVTVSS VL: AIRMTQSPSSFSASTGDRVTITCQASESIGNALAWYQQKPGKAPKLLIYDASDLASGVPSRFSGSGSGTDFTLTISSLQPEDFATYYCQQGDSHNNVDNIFGGGTKVEIK")
9.14
>>> number("hu9H5.L4H14 (antibody, V domains shown) VH: EVQLVESGGGLIQPGGSLRLSCAASGFSLSSYGVSWVRQAPGKGLEYVGFIGSGGFAYYASWAKSRFTISRDNSKNTLYLQMNSLRAEDTAVYYCARDDVGGGKSLDIWGQGTLVTVSS VL: DIQMTQSPSSLSASVGDRVTITCQASQSISSYLSWYQQKPGKAPKLLIYSASTLASGVPSRFSGSGSGTDFTLTISSLQPEDFATYYCHQDYTSSNVDNTFGGGTKVEIK")
694
>>> number("10C5 (antibody, V domains shown) VH: QSLEESGGGLVKPTDTLTLTCTVSGFSLSSYGVTWVRQAPGRGLEWIGYITSNYGVSYYASWAKSRSTITRNTNLNTVTLKMTSLTAADTATYFCARENPDYGYAYDAWGPGTLVTVSV VL: AYDMTQTPASLEAAVGGTVTINCQASESISNELSWYQQKPGQPPDLLIYYASTLASGVPSRFKGSGSGTEFTLTISDLECADAATYYCAQGFGSSGVENVFGGGTEVVVK")
16.5

// moving on: another record for Kd
Q. Can you look up the measured Kd of hu3-3F5.L5H19 (antibody, V domains shown) VH: EVQLLESGGGLVQPGGSLRLSCAVSGFSLNDYGVSWVRQAPGKGLEWVGAIGSSGVAWYANFAKGRFTISRDNSKNTLYLQMNSLRAEDTAVYYCARDRDYGYRADDATSGMDLWGRGTLVTVSS VL: AIRMTQSPSSFSASTGDRVTITCQASESIGNALAWYQQKPGKAPKLLIYDASDLASGVPSRFSGSGSGTDFTLTISSLQPEDFATYYCQQGDSHNNVDNIFGGGTKVEIK for me?
A. 4.14
